The reported measurements were obtained from ChEMBL document CHEMBL4152224.

# ASSAY_PROTOCOL: Intrinsic clearance in rat hepatocytes assessed per million cells
Recorded hepatocyte CLint determines the label; the label ranges are b0: < 4 µL/min/1e6 cells; b1: ≥ 4 µL/min/1e6 cells and < 9 µL/min/1e6 cells; b2: ≥ 9 µL/min/1e6 cells

LINE_NOTATION	QUALITATIVE_LABEL
COCc1ccc(-c2ccc3ncc4c(c3c2)n(C2CCOCC2)c(=O)n4C)cn1	b2
COCc1ccc(-c2cc3c(cc2F)ncc2c3n(C3CCOCC3)c(=O)n2C)cn1	b1
CN(C)CCCOc1ccc(-c2ccc3ncc4c(c3c2)n([C@@H]2CCCOC2)c(=O)n4C)cn1	b0
COCc1ccc(-c2cc3c(cc2F)ncc2c3n([C@@H](C)C3CCOCC3)c(=O)n2C)cn1	b0
COCc1ccc(-c2cc3c(cc2F)ncc2c3n([C@H]3CC[C@H](OC)CC3)c(=O)n2C)cn1	b2
CO[C@H]1C[C@@H](n2c(=O)n(C)c3cnc4ccc(-c5ccc(OCCCN(C)C)nc5F)cc4c32)C1	b2
COCc1ccc(-c2cc3c(cc2F)ncc2c3n([C@H]3C[C@H](OC)C3)c(=O)n2C)cn1	b1
CO[C@H]1C[C@@H](n2c(=O)n(C)c3cnc4cc(F)c(-c5ccc(CO)nc5)cc4c32)C1	b1

// switching to the query compound
Each compound maps to one class by hepatocyte CLint. Which class for "Cn1c(=O)n([C@H]2CCCOC2)c2c3cc(-c4ccc(OCCCN5CCCCC5)nc4)c(F)cc3ncc21" ?
b1
